Target: Tyrosine-protein kinase Mer (Homo sapiens)
Sequence (whole entry): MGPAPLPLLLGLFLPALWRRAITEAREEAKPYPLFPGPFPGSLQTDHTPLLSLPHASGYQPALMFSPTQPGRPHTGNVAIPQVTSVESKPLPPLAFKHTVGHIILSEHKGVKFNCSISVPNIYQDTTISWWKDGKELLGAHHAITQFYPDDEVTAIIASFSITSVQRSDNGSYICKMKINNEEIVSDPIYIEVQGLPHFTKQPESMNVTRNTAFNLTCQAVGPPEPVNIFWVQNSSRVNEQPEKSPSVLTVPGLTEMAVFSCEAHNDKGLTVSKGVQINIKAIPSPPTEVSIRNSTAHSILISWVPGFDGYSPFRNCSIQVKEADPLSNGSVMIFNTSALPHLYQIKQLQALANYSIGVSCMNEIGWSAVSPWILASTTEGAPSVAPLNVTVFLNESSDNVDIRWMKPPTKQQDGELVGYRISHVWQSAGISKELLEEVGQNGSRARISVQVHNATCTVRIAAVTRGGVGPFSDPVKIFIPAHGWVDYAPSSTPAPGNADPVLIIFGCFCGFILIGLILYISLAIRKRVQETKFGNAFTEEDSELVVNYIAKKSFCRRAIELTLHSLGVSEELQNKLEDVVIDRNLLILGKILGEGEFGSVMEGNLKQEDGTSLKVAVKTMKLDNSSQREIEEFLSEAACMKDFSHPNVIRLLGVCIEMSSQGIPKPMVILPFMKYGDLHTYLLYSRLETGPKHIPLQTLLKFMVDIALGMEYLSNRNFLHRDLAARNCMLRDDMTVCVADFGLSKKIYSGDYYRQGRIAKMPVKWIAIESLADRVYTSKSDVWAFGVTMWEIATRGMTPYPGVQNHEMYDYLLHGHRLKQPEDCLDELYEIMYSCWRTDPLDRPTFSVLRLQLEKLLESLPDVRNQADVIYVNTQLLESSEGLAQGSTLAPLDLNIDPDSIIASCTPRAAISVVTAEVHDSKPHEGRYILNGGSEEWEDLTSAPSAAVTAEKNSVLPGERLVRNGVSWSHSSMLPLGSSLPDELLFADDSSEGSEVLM
Conditions: at 10 µM
List of inhibition values.
parameter-measured: inhibition (%)

CCCN1CCCC(c2ccc(Nc3nc(Nc4cc(F)ccc4C(N)=O)c4cc[nH]c4n3)c(OC)c2)C1 (stereo not given): 5
Cc1ccc(NC(=O)c2ccnc(N3CCCC3)c2)cc1-c1ccc(C(=O)NCC2CC2)cc1: -1
N#Cc1c(NC(=O)c2cccc3ccccc23)sc2c1CCCC2: 78
CCn1c(-c2nonc2N)nc2c(C#CC(C)(C)O)nc(OC[C@H](N)c3ccccc3)cc21: -2
C[C@@H](Oc1cc(-n2cnc3ccc(OCC4CCN(C)CC4)cc32)sc1C(N)=O)c1ccccc1Cl: 55

###

Entries annotated with measured inhibition
Molecular target: Inhibitor of nuclear factor kappa-B kinase subunit epsilon (Homo sapiens) (UniProt Q14164)
Sequence (whole entry): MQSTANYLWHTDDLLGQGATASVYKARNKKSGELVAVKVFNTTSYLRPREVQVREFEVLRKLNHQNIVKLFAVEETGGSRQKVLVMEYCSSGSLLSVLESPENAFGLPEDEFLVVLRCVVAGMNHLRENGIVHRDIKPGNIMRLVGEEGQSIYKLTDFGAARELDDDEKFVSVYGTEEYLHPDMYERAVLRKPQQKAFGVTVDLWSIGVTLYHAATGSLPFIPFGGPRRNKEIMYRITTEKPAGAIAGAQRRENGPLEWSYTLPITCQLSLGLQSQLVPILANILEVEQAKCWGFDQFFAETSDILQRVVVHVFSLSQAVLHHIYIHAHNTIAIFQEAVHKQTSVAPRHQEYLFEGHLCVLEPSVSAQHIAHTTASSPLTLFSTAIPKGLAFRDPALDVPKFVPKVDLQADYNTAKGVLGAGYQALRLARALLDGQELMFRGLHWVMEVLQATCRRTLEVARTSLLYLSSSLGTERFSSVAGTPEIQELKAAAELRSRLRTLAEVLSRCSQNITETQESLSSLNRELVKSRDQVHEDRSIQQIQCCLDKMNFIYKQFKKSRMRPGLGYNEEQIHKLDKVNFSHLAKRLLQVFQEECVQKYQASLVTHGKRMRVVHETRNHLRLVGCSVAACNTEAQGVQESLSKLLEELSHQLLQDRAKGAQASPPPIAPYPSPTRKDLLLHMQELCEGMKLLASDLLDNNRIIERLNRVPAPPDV
Conditions: at 1 µM
parameter-measured: inhibition (%)

COc1cccc(-n2ncc3c(N/N=C/c4ccc(C)cc4)ncnc32)c1: 0
CS(=O)(=O)CCNCc1nc(-c2ccc3ncnc(Nc4ccc(OCc5cccc(C(F)(F)F)c5)cc4)c3c2)cs1: 0
CN(C)c1cc2c(Nc3ccc4c(cnn4Cc4ccccc4)c3)ncnc2cn1: -2
CC(C)c1ccc(-c2cc(-c3c[nH]nc3-c3ccccn3)ccn2)cc1: -5
COc1cc2ncn(-c3cc(OCc4ccccc4C(F)(F)F)c(C(C)=O)s3)c2cc1OC: -4
COc1cc2ncn(-c3cc(OCc4ccccc4C(F)(F)F)c(C(=O)N(C)C)s3)c2cc1OC: -1
COc1ccc(-c2nn3ncccc3c2-c2ccnc(Nc3ccc4c(c3)OCCO4)n2)cc1: 1
Fc1ccc(-c2ncn(CCCN3CCOCC3)c2-c2ccncc2)cc1: 0
COc1ccc(-c2coc3ncnc(N)c23)cc1: -4
Cc1cc(O)cc(C)c1/C=C/c1cncc(-c2nn[nH]n2)c1: 2
